Reference source: patent US20050090471A1

# Test system: HCT-116 cells
# Test Summary: Clonogenic survival assay with HCT-116 cells
# Format: cell-based
# Cond: Homo sapiens, 48 h exposure, read-out: HCT-116 IC50 clonogenic 48 h
pIC50: −log10 of the molar value.
Readout: pIC50

**Q:** Param readout= pIC50; system= HCT-116 cells; entry= CC(C)c1nn(-c2c(Cl)cc(Cl)cc2Cl)c2nc(Cc3ccc(OCCN4CCOCC4)cc3)[nH]c(=O)c12.Cl [A] ; returns value.
**A:** > 7.00

====

Each item that follows carries a reported NCI panel ADR-res.
# System: ADR-res
# Test Summary: NCI panel (SRB assay), ADR-res cell line
# Assay type: cell-based, human
# Cond: 48 hours incubation with compound, unit not given

// solved cases for NCI panel ADR-res follow
Smiles Code: CN1CCN(NC(=O)Nc2cccc3c2C(=O)c2c-3n[nH]c2-c2ccc(OCCN3CCOCC3)cc2)CC1.Cl.Cl
Assayed System: ADR-res
NCI panel ADR-res: <10
--
Smiles Code: CCCN(CCOc1ccc(-c2[nH]nc3c2C(=O)c2c(NC(=O)NN4CCOCC4)cccc2-3)cc1)CC1CC1.Cl.Cl.Cl
Assayed System: ADR-res
NCI panel ADR-res: <1
--
Smiles Code: CN1CCN(NC(=O)Nc2cccc3c2C(=O)c2c-3n[nH]c2-c2ccc(OCCN3CCCC3)cc2)CC1.Cl.Cl.Cl
Assayed System: ADR-res
NCI panel ADR-res: <1

**Q:** Look up NCI panel ADR-res: "Cc1cc(OCCN2CCCC2)ccc1-c1[nH]nc2c1C(=O)c1c(NC(=O)NN3CCN(C)CC3)cccc1-2.Cl.Cl.Cl"
**A:** >10

====

# Test system: HCT-116 cells
# Test Summary: BrdU incorporation into DNA (flow cytometry)
# Assay type: cell-based, human
# Parameters: unit not given here
# Cond: analysis at 72 hours, inhibition of BrdU incorporation, unit not given
Readout: BrdU 72

Smiles Code: CCCN(CCOc1ccc(-c2[nH]nc3c2C(=O)c2c(NC(=O)NN4CCOCC4)cccc2-3)cc1)CC1CC1.Cl.Cl.Cl
BrdU 72: <0.1
--
Smiles Code: CN1CCN(NC(=O)Nc2cccc3c2C(=O)c2c-3n[nH]c2-c2ccc(OCCN3CCCC3)cc2)CC1.Cl.Cl.Cl
BrdU 72: <1
--
Smiles Code: CN1CCN(NC(=O)Nc2cccc3c2C(=O)c2c-3n[nH]c2-c2ccc(OCCN3CC[C@H](O)C3)cc2)CC1.Cl.Cl.Cl
BrdU 72: <1
--
Smiles Code: CC(C)c1nn(-c2c(Cl)cccc2Cl)c2nc(Cc3ccc(O)c(CN4CCN(C(C)C)CC4)c3)[nH]c(=O)c12.Cl.Cl
BrdU 72: <1
--
Smiles Code: Cc1cc(OCCN2CCCC2)ccc1-c1[nH]nc2c1C(=O)c1c(NC(=O)NN3CCN(C)CC3)cccc1-2.Cl.Cl.Cl
BrdU 72: <0.1

**Q:** Please look up its BrdU 72: "CC(C)N1CCN(CCOc2ccc(-c3[nH]nc4c3C(=O)c3c(NC(=O)NN5CCOCC5)cccc3-4)cc2)CC1.Cl.Cl.Cl"
**A:** <0.1

====

Recorded NCI panel ADR-res for the following compounds
# System: ADR-res
# Test Summary: NCI panel (SRB assay), ADR-res cell line
# Assay type: cell-based, human
# Cond: 48 hours incubation with compound, unit not given

Example results:
Compound: CC(C)c1nn(-c2c(Cl)cc(Cl)cc2Cl)c2nc(Cc3ccc(OCCN4CCOCC4)cc3)[nH]c(=O)c12.Cl [A]
Assayed System: ADR-res
NCI panel ADR-res: <1

Compound: CC(C)N1CCN(CCOc2ccc(-c3[nH]nc4c3C(=O)c3c(NC(=O)NN5CCOCC5)cccc3-4)cc2)CC1.Cl.Cl.Cl [E]
Assayed System: ADR-res
NCI panel ADR-res: <1

Compound: CC(C)N1CCN(Cc2cc(-c3[nH]nc4c3C(=O)c3c(NC(=O)NN5CCOCC5)cccc3-4)ccc2O)CC1.Cl.Cl.Cl.Cl [K]
Assayed System: ADR-res
NCI panel ADR-res: <10

**Q:** What NCI panel ADR-res appears in the records for this compound with ADR-res? Cl.Cl.Cl.O=C(Nc1cccc2c1C(=O)c1c-2n[nH]c1-c1ccc(OCCN(CCO)CCO)cc1)NN1CCOCC1 [H]
**A:** >10

**Q:** Look up NCI panel ADR-res with ADR-res for this compound: Cl.Cl.Cl.O=C(Nc1cccc2c1C(=O)c1c-2n[nH]c1-c1ccc(OCCN2CCCC2)cc1)NN1CCOCC1 [Compound I]
**A:** <1

**Q:** Give recorded NCI panel ADR-res with ADR-res for the following compound: CC(C)c1nn(-c2c(Cl)cccc2Cl)c2nc(Cc3ccc(O)c(CN4CCN(C(C)C)CC4)c3)[nH]c(=O)c12.Cl.Cl [Compound C]
**A:** <0.1
